Reported values: pIC50 for UniProt Q72874, one per item.
One number for each entry, as −log10 of the molar value.

O=C1N(Cc2ccccc2)[C@H](CCc2ccccc2)[C@H](O)[C@@H](O)[C@@H](CCc2ccccc2)N1Cc1ccccc1 :: 5.40
COC(=O)c1ccc(CN2C(=O)N(Cc3ccc(C(=O)OC)cc3)[C@H](COc3ccccc3)[C@H](O)[C@@H](O)[C@H]2COc2ccccc2)cc1 :: 5.10
O=C1N(Cc2ccc(CO)cc2)[C@H](Cc2ccccc2)[C@H](O)[C@@H](O)[C@@H](Cc2ccccc2)N1Cc1ccc(CO)cc1 [DMP-323] :: 7.82
O=C1N(Cc2ccc(CO)cc2)[C@H](COc2ccccc2)[C@H](O)[C@@H](O)[C@@H](COc2ccccc2)N1Cc1ccc(CO)cc1 :: 8.00
O=S1(=O)N(Cc2ccccc2)[C@H](COc2ccccc2)[C@H](O)[C@@H](O)[C@@H](COc2ccccc2)N1Cc1ccccc1 :: 6.70
O=C1N(Cc2ccccc2)[C@H](COc2ccccc2)[C@H](O)[C@@H](O)[C@@H](COc2ccccc2)N1Cc1ccccc1 :: 7.10

Fill in pIC50 for each of the 2 molecules listed.
1. O=S1(=O)N(Cc2ccccc2)[C@H](CCc2ccccc2)[C@H](O)[C@@H](O)[C@@H](CCc2ccccc2)N1Cc1ccccc1
2. O=C1N(Cc2ccccc2)[C@H](CCCc2ccccc2)[C@H](O)[C@@H](O)[C@@H](CCCc2ccccc2)N1Cc1ccccc1

Output:
1: 6.70; 2: 5.00

* * *

Molecular target: Human immunodeficiency virus type 1 protease (Human immunodeficiency virus 1)
Measure name: Ki (nM)
One number for each entry, in nM.

Guide cases for Ki, answers given:
O=C1N(Cc2ccc(CO)cc2)[C@H](COc2ccccc2)[C@H](O)[C@@H](O)[C@@H](COc2ccccc2)N1Cc1ccc(CO)cc1 :: 0.23
O=S1(=O)N(Cc2ccccc2)[C@H](CCc2ccccc2)[C@H](O)[C@@H](O)[C@@H](CCc2ccccc2)N1Cc1ccccc1 :: 14.7
O=C1N(Cc2ccccc2)[C@H](CCCc2ccccc2)[C@H](O)[C@@H](O)[C@@H](CCCc2ccccc2)N1Cc1ccccc1 :: 570

Now consider the entry below.
Input: Any idea what its Ki is? The compound is O=C1N(Cc2ccccc2)[C@H](CCc2ccccc2)[C@H](O)[C@@H](O)[C@@H](CCc2ccccc2)N1Cc1ccccc1
Output: 214
